Assay: Components of the Cytosolic LPS Sensing Pathway: Gene Identification via Genome-wide siRNA Screen;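 note: robust z of the log signal after scaling to non-targeting control siRNA wells of the plate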
Conditions: RAW264.7 macrophages, IL-1a HTRF, actives lie on both sides, screened at 100 nM (by protocol), cells primed 5 h with Pam3CSK4 first
Out of some 53,000 sequences screened, about 3,700 (7%) were called active. The full list was thinned out, with actives kept by preference.
# reported z-score; entries follow
Answer using only a numeral; do not append any unit.

Here's what some known entries look like.
GCUUAACUAGUAUCCUAUGTT against Tas2r135 :: -0.228
CCUAUCCAGAUGUCAUUAATT against Hoxa11 :: 0.849

# input for lookup
Per the record, GCCUACGUGAAAUCUCACATT against Mycl has z-score of 0.147

###

Test: Components of the Cytosolic LPS Sensing Pathway: Gene Identification via Genome-wide siRNA Screen;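 note: robust z of the log signal after scaling to non-targeting control siRNA wells of the plate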
Details: RAW264.7 macrophages, IL-1a HTRF, actives lie on both sides, screened at 100 nM (by protocol), cells primed 5 h with Pam3CSK4 first
In all, about 53,000 sequences went through this assay and about 3,700 (7%) were called active. This is one part of a sample in which actives are shown more often than they occur.
# reported z-score; entries follow
Answer using only a numeral; do not append any unit.

Here's what some known entries look like.
GGUAUAUGGUGGGAACUUUTT against Bnipl :: 2.04
GCUCUACAGUAGAACAAACTT against Efcab5 :: 1.18
GGACAGAUGAAGCUGCAUUTT against S100a4 :: -0.422

Per the record, GGUCCAGACAUUUGGAUACTT against Cav2 has z-score of 0.428

Per the record, GGUGUUCGUCAUAUGGAAUTT against Tex46 has z-score of 3.71

Per the record, GCAUAACUUAAACUGCUCATT against Zfp12 has z-score of 1.91

Per the record, CGGGAAUCCUAUCUAUCAATT against Smox has z-score of 0.762

Per the record, GGUCACAGUUGGCAAAGAUTT against Myh11 has z-score of -0.521

Per the record, GGAUUCUGGGCUGAAUGGGTT against Pcdh18 has z-score of -0.491

Per the record, GCAGUGCGAUUGCUUACAGTT against Tube1 has z-score of 1.07

Per the record, GGGAGAAGCAAUUUUUAACTT against Gpr34 has z-score of 0.132

Per the record, GGCAUUUCAUGUAGCUAAATT against Spata18 has z-score of 2.04

Per the record, GGAAAGGACAAGAAAAUUUTT against Strn has z-score of -2.03

Per the record, CGAGCUUUGAAAGUUUAAUTT against Pcsk2 has z-score of 0.591

Per the record, CCAAGGACACUAUACAAAUTT against Fank1 has z-score of 0.957

Per the record, GGCUUACGAUGAAAAUAAATT against Lca5 has z-score of -1.94

Per the record, GGGAAUAAAAAGGAUCACUTT against Rab39 has z-score of 1.27

Per the record, GGUACUGGAAGAGGAGGUATT against Ppil3 has z-score of -0.507

Per the record, GGGCCAUACCAUUUGGGUGTT against Wdr38 has z-score of 0.142

Per the record, GGGAAUCAAAGGCUUUGGGTT against Ms4a1 has z-score of -1.15

Per the record, GCUCUGCUGUGUUAUAUGGTT against C330011M18Rik has z-score of 0.144

Per the record, GCCUUUACCCAAAUUAUCATT against Defb4 has z-score of 0.567

Per the record, GCUGAUGUAAGUAUUCUAGTT against Pdcl has z-score of 0.1

Per the record, GGAUGUAUGAUGCAGUUAUTT against Olfr1211 has z-score of 1.89

Per the record, GGCGAAGGAGAAGAAUUAATT against Rhox5 has z-score of 0.352

Per the record, GGGCAAAGACAGUAUUCAATT against B530045E10Rik has z-score of 0.4

Per the record, GCACAAAUAAAGAUAAGAGTT against Uox has z-score of -0.178
